- Assay method text: NCI Yeast Anticancer Drug Screen. Data for the sgs1 mgt1 strain (AID 161);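 further: 0% = growth of cultures given vehicle only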
- Condition context: S. cerevisiae sgs1 mgt1 strain, at 50.0 µM, stronger effect = higher value
Compounds without any hit were thinned out: in the full panel of roughly 79,000, 15% have a hit.
This section presents compounds with their documented growth inhibition values.

>  <Compound>
CCCCCCCC(N)=O

>  <growth inhibition (%)>
8.4

$$$$
>  <Compound>
COc1cc(C2C3=C(CCC3=O)Oc3cc4c(cc32)OCO4)cc(OC)c1OC (stereo unspecified)

>  <growth inhibition (%)>
-12.2

$$$$
>  <Compound>
CO/N=C(\C(=O)N(C)n1cnnc1)c1csc(NC(c2ccccc2)(c2ccccc2)c2ccccc2)n1

>  <growth inhibition (%)>
11.8

$$$$
>  <Compound>
CN(Cc1ccc(Cl)cc1)C(=O)Nc1ccccc1Cl

>  <growth inhibition (%)>
43.3

$$$$
>  <Compound>
O=C1C=CSc2ccccc2N1

>  <growth inhibition (%)>
-2.15

$$$$
>  <Compound>
CCC1CN2C(=N1)c1ccccc1-c1cc([N+](=O)[O-])ccc12 (stereo unspecified)

>  <growth inhibition (%)>
-20.2

$$$$

* * *

- Assay method text: NCI Yeast Anticancer Drug Screen. Data for the rad50 strain (AID 155);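 further: 0% = growth of vehicle-only cultures of the same strain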
- Condition context: S. cerevisiae rad50 strain growth inhibition; at 50.0 µM; stronger effect = higher value
- Procedure: Growth inhibition of yeast strains with defined genetic alterations is measured as a screen for potential anti-cancer activity. Selected strains with alterations in DNA damage repair or cell cycle control were exposed to compounds and growth inhibition was measured relative to vehicle treated controls. The strain used in this assay is rad50
About 79,000 compounds went through this panel and 15% of them were active in at least one assay; those are over-represented in the sample as a whole.
// reported growth inhibition per item

>  <Compound>
CCNC(=O)c1ccc(Cl)cc1

>  <growth inhibition, %>
19.9

$$$$
>  <Compound>
COC(=O)/C(=N\NC(N)=O)C(C#N)c1ccccc1 (configuration not stated)

>  <growth inhibition, %>
-12.5

$$$$
>  <Compound>
O=[N+]([O-])c1ccc(C2=NOC3COC4C=CC=CC4OCC23)cc1 (configuration not stated)

>  <growth inhibition, %>
-3.4

$$$$
>  <Compound>
N#CC1(N)c2ccccc2-c2ccccc21

>  <growth inhibition, %>
34.8

$$$$
>  <Compound>
O=C1CC2COc3ccc(OCCN4CCCC4)cc3C2=NN1c1ccccc1 (configuration not stated)

>  <growth inhibition, %>
-4.75

$$$$
>  <Compound>
Nc1cc(Cl)cc2[nH]c(=O)c3cc(Cl)ccc3c12

>  <growth inhibition, %>
39.8

$$$$
>  <Compound>
Nc1ncnc(N)c1NC(=O)c1ccc(SCc2ccccc2)cc1

>  <growth inhibition, %>
-7.15

$$$$
>  <Compound>
CCOC(=O)C(Br)(C(=O)OCC)C(C)C

>  <growth inhibition, %>
3.75

$$$$
>  <Compound>
CC1C2CC(CC2(C)O)C1(C)C (configuration not stated)

>  <growth inhibition, %>
8.45

$$$$
>  <Compound>
COc1cccc(-c2cc(=O)c3cc(Cl)cnc3[nH]2)c1

>  <growth inhibition, %>
5.35

$$$$
>  <Compound>
CC(=O)Nc1ccc2c(c1)N(O)C(=O)C2(C)C

>  <growth inhibition, %>
7.9

$$$$
>  <Compound>
Cc1ccc2[nH]c(C)c(C(=O)c3ccncc3)c2c1

>  <growth inhibition, %>
-2.75

$$$$

Each recorded value in this set is attributed to PubChem BioAssay (NCI).
